# assayInfo: Single intravenous dose escalation of P5P, plasma pharmacokinetics (Examples Two and Three)
# Format: in vivo, human
# statedConditions: both sexes, human, plasma, iv, 20 mg/kg, Group 4, P5P 20 mg/kg single iv; plasma PA; mean
# Experimental: A phase one clinical trial was conducted to compare the pharmacokinetics of intravenously administered P5P and orally administered P5P. The trial was a single dose escalation study. […] P5P, pyridoxal, and 4-pyridoxic acid were evaluated in both plasma and urine over a 24 hour interval following either intravenous or oral dosing. […] Concentrations of pyridoxal-5′-phosphate (P5P) were measured from the plasma samples collected over a 24-bour interval after dosing in each phase. […]
valueKind: Tmax (min)
// units = min; emit number, no label

Qu. Query: Tmax; subject: Cc1ncc(CO)c(C(=O)O)c1O [PA, 4-pyridoxic acid]
Ans. 43.8
